test system: CART19; test: In vitro venetoclax CART cell toxicity assay; assay type: cell-based, human; details: Homo sapiens; healthy donor-derived CAR T cell; read-out: average value of the IC50 concentration
value_type: IC50

>>> observed_measurement("CC1(C)CCC(CN2CCN(c3ccc(C(=O)NS(=O)(=O)c4ccc(NCC5CCOCC5)c([N+](=O)[O-])c4)c(Oc4cnc5[nH]ccc5c4)c3)CC2)=C(c2ccc(Cl)cc2)C1")
"0.6 µM"

---

system: CART19; assay: In vitro venetoclax CART cell toxicity assay; format: cell-based, human; conditions: Homo sapiens; venetoclax on CART19; long-term in vitro assay; n=3 donors; read-out: average IC50 value (CART cell survival)
value_type: IC50 (nM)

>>> observed_measurement("CC1(C)CCC(CN2CCN(c3ccc(C(=O)NS(=O)(=O)c4ccc(NCC5CCOCC5)c([N+](=O)[O-])c4)c(Oc4cnc5[nH]ccc5c4)c3)CC2)=C(c2ccc(Cl)cc2)C1 [venetoclax]")
131

These data points were gathered from patent US20240335539A1.
